Would you mind telling me the reported TGI of each entry?
- Tested on: HCC-2998 colon
- experimental_details: NCI tumour cell line growth inhibition, 48 h
One number for each entry, in µM.

Solved entries:
- molecule: "N#Cc1c(N/N=C/c2c(Cl)cccc2Cl)nc(N)nc1N1CCOCC1"
  test_target: "HCC-2998 colon"
  TGI, µM: 12.8
- molecule: "C=CC(=O)N(C)[C@H]1C[C@H]2OC(C)(C1OC)n1c3ccccc3c3c4c(c5c6ccccc6n2c5c31)C(=O)NC4 (stereo partly drawn)"
  test_target: "HCC-2998 colon"
  TGI, µM: 1.46
- molecule: "C/C(=N\\Nc1ccc2ccccc2n1)c1ccccn1"
  test_target: "HCC-2998 colon"
  TGI, µM: 2.51
- molecule: "O=c1cc(-c2ccccc2)[nH]c2cc(O)ccc12"
  test_target: "HCC-2998 colon"
  TGI, µM: 74.7
- molecule: "O=C(c1ccccc1)c1ccc(COc2ccc(C(c3c(O)c4ccccc4oc3=O)c3c(O)c4ccccc4oc3=O)cc2)cc1"
  test_target: "HCC-2998 colon"
  TGI, µM: 33.5
- molecule: "COC(=O)C1=CSC2(S1)C(C(=O)OC)=CSc1c2ssc1=Nc1ccccc1 (stereo not drawn)"
  test_target: "HCC-2998 colon"
  TGI, µM: 4.25

Provide TGI for all items below, preserving their order.
1. O=S(=O)(Sc1ccc(Cl)cc1)c1ccc(Cl)cc1
2. O=C1C(=O)c2c(nc3ccc(Cl)cn23)-c2ccccc21
3. CCN=C1C=CC(=C(c2ccc(N)cc2)c2ccc(N(CC)CC)c(C)c2)C=C1
4. COc1ccc2cc(-c3ccoc(=O)c3-c3cc(OC)c(OC)c(OC)c3)ccc2c1
5. C=CC(=O)Nc1cccc(C)c1Nc1cc(-c2cccnc2Cc2c(C)c(OC)cc(OC)c2C)ncn1
6. COc1cc2cc(C(=O)N3CC(CCl)c4ccc(O)cc43)[nH]c2c(OC)c1OC (stereo not drawn)

Response:
1: 40.7; 2: 3.96; 3: 1.65; 4: 0.426; 5: 30.6; 6: 0.00936

Hello, the source for this data is PubChem BioAssay (NCI), in case you need it.
